Source: ChEMBL document CHEMBL4627316

test target: Proteinase-activated receptor 1 (Homo sapiens) (UniProt P25116)
Sequence (P25116 whole entry): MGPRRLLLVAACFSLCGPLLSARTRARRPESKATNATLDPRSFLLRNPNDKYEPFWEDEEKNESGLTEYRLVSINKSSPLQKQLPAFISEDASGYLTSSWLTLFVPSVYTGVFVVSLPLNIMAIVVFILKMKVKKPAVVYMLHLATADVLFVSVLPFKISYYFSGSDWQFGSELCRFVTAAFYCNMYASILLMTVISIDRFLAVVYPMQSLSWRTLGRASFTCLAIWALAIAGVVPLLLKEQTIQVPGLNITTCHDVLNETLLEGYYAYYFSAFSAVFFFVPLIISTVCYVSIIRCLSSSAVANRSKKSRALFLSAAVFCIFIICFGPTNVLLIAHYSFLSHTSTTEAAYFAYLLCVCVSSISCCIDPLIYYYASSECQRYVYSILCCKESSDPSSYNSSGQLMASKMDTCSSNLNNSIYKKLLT
experimental protocol: Antagonist activity at human PAR1 expressed in KNRK cells assessed as inhibition of agonist-induced intracellular calcium mobilization at 10^-7 M by fluorimetric assay relative to control
Assay type: functional, cell-based
Each entry below carries its recorded inhibition.
Lab book: enter the figure in %, no units written.

CCOC(=O)CN[C@@]12C[C@@H]3CCCC[C@H]3[C@H](/C=C/c3ccc(-c4cccc(F)c4)cn3)[C@@H]1[C@@H](C)OC2=O ... -5
C[C@H]1OC(=O)[C@@H]2C[C@@H]3C[C@H](NCC#N)CC[C@H]3[C@H](/C=C/c3ccc(-c4cccc(F)c4)cn3)[C@H]12 ... 44

Item C[C@H]1OC(=O)[C@@H]2C[C@@H]3C[C@H](NCC(=O)O)CC[C@H]3[C@H](/C=C/c3ccc(-c4cccc(F)c4)cn3)[C@H]12 has what recorded inhibition? 13

Now the same for Cc1ccnc(N[C@@H]2CC[C@@H]3[C@@H](C2)C[C@H]2C(=O)O[C@H](C)[C@H]2[C@H]3/C=C/c2ccc(-c3cccc(F)c3)cn2)n1 20
